# System: Chordin-like protein 2 (CHRDL2)
# experiment: CHRDL2 small-molecule binders, primary screen, biochemical, small-molecule microarray, 635 nm fluorescence (AID 1126);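 also: printed compound slides probed with Chrdl2 protein at 4 µg/mL for 1 h at 4 C; score merges 667 nm emission intensity with signal to noise over three replicate slides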
# measurement_conditions: small-molecule microarray binding, fluorescence 635 nm; higher = more signal
composite z-score reference
Keep the answer to the number alone.

Here's what some known entries look like.
[[record]]
compound = "Cc1ccc(S(=O)(=O)N2[C@@H](c3ccccc3)C(C(=O)O)=CC[C@H]2c2ccccc2)cc1"
value_reported = -0.439

[[record]]
compound = "C=C[C@H](OC)[C@@H](OC(=O)Nc1ccc(SC)cc1)c1ccc(OC)c(O)c1"
value_reported = -0.998


# context switch: different compound, same composite z-score
Annotate the compound CO[C@H]1COC(=O)[C@@H](C)NC(=O)CC=C[C@@H](C)[C@H](OC)COC(=O)CC=C[C@@H]1C with its measured composite z-score.
1.46

---

# experiment: COS7 lysate on small-molecule microarray, probe aHis, 635 nm (AID 1123);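 also: z-score combines 667nm fluorescence intensity with signal-to-noise per printed compound spot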
# measurement_conditions: COS7 cell lysate, fluorescence, higher = more signal
readout_type: composite z-score
Keep the answer to the number alone.

Here's what some known entries look like.
[[record]]
compound = "CN(C)c1ccc(C(O)C2C=CC3C(=O)NC(=O)C3N2Nc2ccc(Cl)cc2Cl)cc1 (configuration not stated)"
value_reported = 2.51

[[record]]
compound = "CC(=O)NCCCC[C@@H]1NC(=O)[C@H]2C[C@@H](C(=O)NCCCCCCN(C)C)[C@@H](c3ccc(O)cc3)N2C1=O"
value_reported = 2.16

[[record]]
compound = "CCOC(=O)C[C@H]1[C@H](OC(=O)Cc2ccc3c(c2)OCO3)[C@@H](NC(=O)CC(C)C)c2cc(OCCCO)ccc2N1C(=O)c1ccccc1"
value_reported = 0.41

[[record]]
compound = "CCCN1C(=O)[C@@]2(CCS(=O)(=O)c3ccccc3)N=C(c3ccc(OCCCO)cc3)O[C@H]2c2ccccc21"
value_reported = 2.41

[[record]]
compound = "C=C(CCCC)/C(=C/C[C@@H](OC(=O)c1ccncc1)c1ccc(CO)o1)c1cnc2ccccc2c1"
value_reported = 2.33

[[record]]
compound = "C=CCC(OC(C)=O)[C@@H]1[C@@H](N(Cc2cc3ccccc3o2)C(=O)Cc2ccc(F)cc2)c2cc(OCCCO)ccc2N1C(=O)c1ccc(-c2ccccc2)cc1 (some centres not stated)"
value_reported = 0.125


Annotate the compound C[C@H]1C2[C@H](Cc3ccccc3)NC(=O)[C@]23C(=O)N[C@H](Cc2ccccc2)C(=O)N[C@@H](Cc2ccccc2)C(=O)NC/C=C\C/C=C/C3[C@@H]2O[C@]12C (some centres not stated) with its measured composite z-score.
0.0046

Annotate the compound C=CCNC(=O)[C@@H]1[C@H]2C(=O)O[C@H](c3ccccc3)[C@H](c3ccccc3)N2[C@H](c2ccc(OCCO)cc2)[C@@]12C(=O)N(C(=O)OCCOC)c1ccc(C#CC3(O)CCCCCC3)cc12 with its measured composite z-score.
1.5

Annotate the compound CCOC(=O)C1=CCC(c2cccc3ccccc23)N(S(=O)(=O)c2ccc(C)cc2)C1 (configuration not stated) with its measured composite z-score.
1.41

Annotate the compound O=C1O[C@H](c2ccccc2)[C@H](c2ccccc2)N2[C@H]1[C@@H](C(=O)NC[C@H](O)c1ccccc1)[C@]1(C(=O)Nc3ccc(C#CC4(O)CCCCCC4)cc31)[C@H]2c1ccc(OCCO)cc1 with its measured composite z-score.
1.92

Annotate the compound COCC(=C=CC[C@H](O)c1ccc(OCCO)cc1)C[C@H](O)c1ccccn1 with its measured composite z-score.
0.257

Annotate the compound COC(=O)C1=CC(c2ccc(CO)cc2)=CC(c2cccs2)N(Cc2cccc(OC(F)(F)F)c2)C=C1C(=O)OC (configuration not stated) with its measured composite z-score.
2.76

Annotate the compound O=C1O[C@@H](c2ccccc2)[C@@H](c2ccccc2)N2[C@@H](c3ccc(OCCO)cc3)[C@]3(C(=O)Nc4ccc(C#CCCO)cc43)[C@@H](C(=O)N3CCN(c4ncccn4)CC3)[C@H]12 with its measured composite z-score.
1.87

Annotate the compound C#CCCCON=C1C[C@@H](O)[C@@H](O)[C@@H]2[C@@H]3C(=O)N(Cc4ccc5c(c4)OCO5)C(=O)[C@@H]3CC[C@@H]12 with its measured composite z-score.
0.537

Annotate the compound NC(=O)[C@H]1[C@@H]2C(=O)O[C@@H](c3ccccc3)[C@@H](c3ccccc3)N2[C@@H](c2ccc(O)cc2)[C@]12C(=O)Nc1ccc(C#CCCO)cc12 with its measured composite z-score.
-0.119

Annotate the compound O=C1C2C=CC(C(O)Cc3ccccc3)N(Nc3ccc([N+](=O)[O-])cc3)C2C(=O)N1c1ccccc1 (configuration not stated) with its measured composite z-score.
1.02

Annotate the compound O=C1c2ccccc2[C@@]2(Cc3ccccc3N(CC(F)(F)F)C2=O)[C@H](c2ccc(CO)cc2)N1C1CCCCC1 with its measured composite z-score.
0.31

Annotate the compound C[C@@H]1C=CCC(=O)OC[C@H]2O[C@@H](C=C[C@@H]2O)[C@H](C)C=CCC(=O)OC[C@H]2O[C@H]1C=C[C@@H]2O with its measured composite z-score.
-0.268

Annotate the compound CCN1C(C)=C(C(=O)OC)[C@@H](c2ccccc2)N2C(=O)[C@](O)(C(=O)OC)[C@@H](c3ccccc3)C(C(C)=O)=C12 with its measured composite z-score.
-0.0995

Annotate the compound Cc1ccc(S[C@]2(C(=O)NC(C)C)CC(=O)N(C3Cc4ccccc4C3)[C@@H]2c2ccc(CO)cc2)cc1 with its measured composite z-score.
1.86

---

z-score reference
# experiment: MM1S cell viability effects, profiling panel, calcein-AM fluorescence, 48 h, basal (AID 1165);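 also: viability of MM1S multiple myeloma cells under basal unstimulated conditions; test concentration not given here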
# measurement_conditions: higher = more signal

Here's what some known entries look like.
[[record]]
compound = "CCN1C(C)=C(C(=O)OC)[C@@H](c2ccccc2)N2C(=O)[C@](O)(C(=O)OC)[C@@H](c3ccccc3)C(C(=O)c3ccccc3)=C12"
readout_type = "z-score"
value_reported = 0.144

[[record]]
compound = "COC(=O)[C@@]1(Cc2ccccc2CN=[N+]=[N-])N=C(c2ccc(OCCCO)cc2)O[C@H]1c1ccccc1N=[N+]=[N-]"
readout_type = "z-score"
value_reported = -2.99

[[record]]
compound = "CC(C)(C)OC(=O)CC[C@@]1(C(=O)NCc2ccccc2)N=C(c2ccc(OCCCO)cc2)O[C@@H]1c1ccccc1"
readout_type = "z-score"
value_reported = -2.37

[[record]]
compound = "CCCC=C(CCC)[C@@H](NS(=O)(=O)c1ccc(C(F)(F)F)cc1)c1ccc(-c2ccccc2)cc1"
readout_type = "z-score"
value_reported = -0.5

[[record]]
compound = "COc1cccc([C@@H]2[C@@H](C)CC[C@H]3C(=O)N4[C@H](c5cccc(OC)c5)[C@@H](C)CC[C@H]4C(=O)N23)c1"
readout_type = "z-score"
value_reported = 0.656

[[record]]
compound = "COCCOC(=O)N1C(=O)[C@@]2(c3ccccc31)[C@H](C(=O)N1CCc3cc(OC)c(OC)cc3C1)[C@H]1C(=O)O[C@H](c3ccccc3)[C@H](c3ccccc3)N1[C@@H]2c1ccccc1OCCO"
readout_type = "z-score"
value_reported = -1.2

[[record]]
compound = "Cc1ccc(S[C@]2(C(=O)O)CC(=O)N(Cc3cc(C(F)(F)F)cc(C(F)(F)F)c3)[C@@H]2c2ccc(CO)cc2I)cc1"
readout_type = "z-score"
value_reported = -3

[[record]]
compound = "CCN1C(C)=C(C(=O)OC)[C@@H](c2ccccc2)N2C(=O)[C@](O)(C(=O)OC)[C@@H](c3ccccc3)C(C(C)=O)=C12"
readout_type = "z-score"
value_reported = 0.244


Annotate the compound Cc1ccc(S[C@]2(C(=O)NC3CC3)CC(=O)N(Cc3cc(C(F)(F)F)cc(C(F)(F)F)c3)[C@@H]2c2ccc(CO)cc2)cc1 with its measured z-score.
0.239

Annotate the compound C=C(COC)/C(=C/C[C@H](OC(C)=O)c1ccc(OCCO)cc1)c1cnc2ccccc2c1 with its measured z-score.
-1.53

Annotate the compound O=C1OCCC/C=C\[C@H]2OC34C=CCN(CCN5CCOCC5)C(=O)[C@H]3N(CCCCCO)C(=O)[C@@H]4C12 (some centres undefined) with its measured z-score.
1.1

Annotate the compound COc1cccc([C@H]2N[C@H](C(=O)O)CC[C@@H]2C)c1 with its measured z-score.
0.543

Annotate the compound CCCC=C(CCC)[C@@H](NS(=O)(=O)c1ccc(-c2ccccc2)cc1)c1ccc(C(=O)OC)cc1 with its measured z-score.
-1.18

Annotate the compound O=C1O[C@H](c2ccccc2)[C@H](c2ccccc2)N2[C@H]1[C@@H](C(=O)Nc1nc3ccccc3s1)[C@]1(C(=O)Nc3ccc(C#CC4=CCCCC4)cc31)[C@H]2c1ccccc1OCCO with its measured z-score.
-1.63

---

# experiment: osmotic lysis modulators in infected erythrocytes, primary screen, PSAC antagonist project, cell-based, P. falciparum Indochina, OD700, 3 h (AID 1156)
# measurement_conditions: higher = more signal, called active from +8 up or from −8 down
z-score reference
Keep the answer to the number alone.

[[record]]
structure_smiles_string = "[N-]=[N+]=NCc1ccccc1[C@H]1OC(c2ccc(OCCCO)cc2)=N[C@@]1(Cc1ccccc1N=[N+]=[N-])C(=O)NCc1ccccc1"
value_reported = 1.96

[[record]]
structure_smiles_string = "COC(=O)Cn1c(C(=O)N2CCCC2)cc2c1C[C@H]1CN(C(=O)c3ccccc3)[C@@](Cc3ccc(OC)cc3)(C(=O)OC)[C@@H]21"
value_reported = 1.68

[[record]]
structure_smiles_string = "CCOC(=O)C[C@H]1[C@H](OC(=O)c2cc3ccccc3oc2=O)[C@@H](NC(=O)C2CCCCC2)c2cc(OCCCO)ccc2N1C(=O)c1ccc2ccccc2n1"
value_reported = 0.499

[[record]]
structure_smiles_string = "COC(=O)[C@@]1(Cc2ccc(OC)cc2)[C@H]2c3cc(C(=O)N(C)C)n(Cc4ccc(C)c(F)c4F)c3C[C@H]2CN1C(=O)c1ccccc1"
value_reported = 0.571

[[record]]
structure_smiles_string = "CO[C@@H]1COC(=O)[C@H](C)NC(=O)CC=C[C@@H](C)[C@H](OC)COC(=O)[C@H](C)NC(=O)CC=C[C@H]1C"
value_reported = 0.0076

[[record]]
structure_smiles_string = "C=C(CCCC)C(=O)CC[C@@H](OC(=O)c1cccnc1)c1cccc(OCCO)c1"
value_reported = 1.28


# context switch: different compound, same z-score
Annotate the compound COc1ccc(C(=O)Nc2ccc(CN3C(=O)[C@]4(O[C@H](CCn5cc(CCO)nn5)[C@@H]([Si](C)(C)c5ccc(OC)cc5)[C@@H]4C)c4ccccc43)cc2)cc1 with its measured z-score.
1.68

Where do the numbers come from? From PubChem BioAssay.
